The following molecules are shown together with reported Emax values.
biological target: Human recombinant PDE2A (hPDE2A) (Homo sapiens); construct: made in house; host or cells: Sf9 insect cells (baculovirus); experiment: In vitro assay PDE2A (SPA, 3H-cGMP); assay type: biochemical; settings: 10 μM cGMP substrate
Sequence (O00408 whole entry): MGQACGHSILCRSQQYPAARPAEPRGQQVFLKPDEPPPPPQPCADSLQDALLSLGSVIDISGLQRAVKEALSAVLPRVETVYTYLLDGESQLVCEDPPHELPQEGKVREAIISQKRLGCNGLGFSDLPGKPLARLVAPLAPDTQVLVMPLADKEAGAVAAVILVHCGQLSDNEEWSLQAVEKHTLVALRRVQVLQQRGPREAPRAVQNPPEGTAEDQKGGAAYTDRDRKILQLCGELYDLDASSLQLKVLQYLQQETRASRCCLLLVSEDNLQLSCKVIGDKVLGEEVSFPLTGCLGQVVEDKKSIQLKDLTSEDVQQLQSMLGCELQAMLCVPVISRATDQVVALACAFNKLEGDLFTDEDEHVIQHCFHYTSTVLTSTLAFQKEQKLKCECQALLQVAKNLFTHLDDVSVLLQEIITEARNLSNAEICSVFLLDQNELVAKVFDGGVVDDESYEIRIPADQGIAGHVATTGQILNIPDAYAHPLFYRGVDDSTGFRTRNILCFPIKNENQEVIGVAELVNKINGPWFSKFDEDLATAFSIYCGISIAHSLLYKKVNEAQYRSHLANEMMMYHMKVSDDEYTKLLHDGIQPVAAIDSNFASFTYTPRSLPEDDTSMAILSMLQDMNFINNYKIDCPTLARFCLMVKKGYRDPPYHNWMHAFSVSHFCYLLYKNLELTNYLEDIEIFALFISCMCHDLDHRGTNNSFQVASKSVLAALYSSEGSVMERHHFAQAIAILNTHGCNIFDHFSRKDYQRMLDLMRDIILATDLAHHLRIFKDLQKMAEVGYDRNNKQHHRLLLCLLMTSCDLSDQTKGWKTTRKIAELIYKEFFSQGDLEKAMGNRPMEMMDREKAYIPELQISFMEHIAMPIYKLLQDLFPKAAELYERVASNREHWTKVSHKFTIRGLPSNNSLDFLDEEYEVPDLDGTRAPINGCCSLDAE
Please respond with the number in % and leave the unit unwritten.

# molecule, Emax [%]
rows = [
    ("Cc1cc(C(C)N2CC[C@@H](C)[C@H](c3cc(C(F)F)nc4ncnn34)C2)cc(C)n1 (single isomer, unassigned) [Compound 1a]", 99),
]

Human recombinant PDE2A (hPDE2A) (Homo sapiens) / Emax / Cc1cc(CN2CC[C@@H](C)[C@@](F)(c3cc(C(F)F)nc4ncnn34)C2)cc(C)n1 (single isomer, unassigned) [Compound 49] : value? 86

Human recombinant PDE2A (hPDE2A) (Homo sapiens) / Emax / C[C@@H]1CCN([C@H](C)c2ccc(C(F)(F)F)cc2)C[C@H]1c1cc(C(F)F)nc2ncnn12 (relative stereo) [Compound 7] : value? 98
